System: MOLM14 F691L cells
Test: MOLM14 F691L cell viability assay (Cell Titer Glo)
Assay type: cell-based
Details: 48 hours
pIC50: −log10 of the molar value.
quantity.measured: pIC50

COc1cc2ncc(-c3cccc(N[C@H]4CNCC[C@@H]4F)n3)n2nc1C(C)(O)C(F)(F)F (single isomer, unassigned; fast-eluting) [Compound 134] : 5.76
COc1cc2ncc(-c3cccc(N[C@@H]4CCCNC4)n3)n2nc1C(C)(O)C(F)(F)F (single isomer, unassigned) [Compound 132] : 5.46
COc1cc2ncc(-c3cccc(N[C@H]4CNC[C@@H]4F)n3)n2nc1C(C)(O)C(F)(F)F (single isomer, unassigned; slow-eluting) [Compound 135] : 5.36
COc1cc2ncc(-c3cccc(N[C@H]4CNC[C@@H]4F)n3)n2nc1C(C)(O)C(F)(F)F (single isomer, unassigned; fast-eluting) [Compound 133] : 6.01

a: COc1cc2ncc(-c3cccc(N[C@@H]4CCCNC4)n3)n2nc1C(C)(O)C(F)(F)F (single isomer, unassigned) [Compound 131]
b: COc1cc2ncc(-c3cccc(N[C@H]4CNCC[C@@H]4F)n3)n2nc1-c1cnn(C(F)F)c1 [Compound 130]
Consider a and b . Which of these has its pIC50 at a higher number? Mark your answer with the label of the selected entry.
a
(a: 6.26, b: 5.86)

====

Target: IRAK4 (Homo sapiens, UniProt Q9NWZ3)
Sequence (Q9NWZ3 whole entry): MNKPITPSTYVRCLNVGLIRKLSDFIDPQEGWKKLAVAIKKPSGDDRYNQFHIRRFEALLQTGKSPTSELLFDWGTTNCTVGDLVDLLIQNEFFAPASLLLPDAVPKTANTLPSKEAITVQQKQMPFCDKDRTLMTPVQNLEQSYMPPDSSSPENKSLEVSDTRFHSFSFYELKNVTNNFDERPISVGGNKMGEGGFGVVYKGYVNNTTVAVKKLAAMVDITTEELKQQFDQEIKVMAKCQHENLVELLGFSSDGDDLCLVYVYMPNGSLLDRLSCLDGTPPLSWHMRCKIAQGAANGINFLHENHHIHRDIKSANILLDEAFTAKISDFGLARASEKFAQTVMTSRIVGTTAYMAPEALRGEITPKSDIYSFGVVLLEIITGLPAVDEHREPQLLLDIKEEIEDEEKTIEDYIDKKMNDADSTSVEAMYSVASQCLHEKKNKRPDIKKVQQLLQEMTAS
Test: RBC HotSpot Kinase Assay, IRAK4
Assay type: biochemical
Parameters: purchased Reaction Biology (RBC HotSpot Kinase Assay)
pIC50: −log10 of the molar value.
quantity.measured: pIC50

Worked examples, 2 compounds total:
c1cc(N[C@@H]2CCCNC2)nc(-c2cnc3ccc(C4CC4)nn23)c1 [Compound 76] : 6.46
F[C@H]1CNC[C@@H]1Nc1cccc(-c2cnc3ccc(N4CCOCC4)nn23)n1 [Compound 95] : 7.62

a: F[C@H]1CNC[C@@H]1Nc1cccc(-c2cnc3ccc(N4CCCCC4)nn23)n1 [Compound 94]
b: c1cc(NC2CC3(CCNC3)C2)nc(-c2cnc3ccc(-c4cn[nH]c4)nn23)c1 (centres unmarked) [Compound 38]
c: Cn1cc(-c2ccc3ncc(-c4cccc(NC5CC6(CCNC6)C5)n4)n3n2)cn1 (centres unmarked) [Compound 42]
Task field, ranking: reported pIC50, descending order. Answer format: list of labels, ordered as asked.
b, a, c
(b: 8.70, a: 7.48, c: 6.95)

====

Target: FLT3 (Homo sapiens)
Construct: purchased Reaction Biology (RBC HotSpot Kinase Assay)
Experiment: RBC HotSpot Kinase Assay, FLT3
Type: biochemical
quantity.measured: IC50 (nM)

F[C@H]1CNC[C@@H]1Nc1cccc(-c2cnc3cc(C4CC4)cnn23)n1 [Compound 111] : 4

1: c1cc(NC2CCNC2)nc(-c2cnc3ccc(-c4cnn(C5CCOCC5)c4)nn23)c1 (stereo not shown) [Compound 29]
2: F[C@H]1CNC[C@@H]1Nc1cccc(-c2cnc3ccc(Oc4ccccc4)nn23)n1 [Compound 88]
Consider 1 and 2 . Which of these has its IC50 at a higher number? Mark your answer with the label of the selected entry.
2

====

System: MOLM14 D835Y cells
Assay: MOLM14 D835Y cell viability assay (Cell Titer Glo)
Assay type: cell-based
Conditions: Homo sapiens, MOLM-14, 48 h
pIC50: −log10 of the molar value.
quantity.measured: pIC50

a: F[C@H]1CNC[C@@H]1Nc1cccc(-c2cnc3cccnn23)n1 [Compound 109]
b: COc1cc2ncc(-c3cc(F)cc(N[C@@H]4CCCNC4)n3)n2nc1C1CC1 [Compound 104]
Consider a and b . Which of these has its pIC50 at a higher number? Mark your answer with the label of the selected entry.
b
(b: 6.71, a: 6.01)

====

Target: FLT3 D835V (Homo sapiens, UniProt P36888, D835V)
Assay: DiscoverX KINOMEscan competition binding assay, FLT3 D835V
pKd: −log10 of the molar value.
quantity.measured: pKd

COc1cc2ncc(-c3cccc(N[C@H]4CNCC[C@@H]4F)n3)n2nc1C1CC1 [Compound 102] : 9.96

1: COc1cc2ncc(-c3cccc(N[C@@H]4CCNC4)n3)n2nc1C1CC1 [Compound 97]
2: COc1cc2ncc(-c3cccc(N[C@H]4CNC[C@@H]4F)n3)n2nc1C1CC1 [Compound 96]
Consider 1 and 2 . Which of these has its pKd at a higher number? Mark your answer with the label of the selected entry.
1
(1: 10.17, 2: 9.92)

====

Biological target: IRAK4 (Homo sapiens, UniProt Q9NWZ3)
Assay: Reaction Biology NanoBRET target engagement assay, IRAK4
Assay type: cell-based
Conditions: transfected HEK-293 cells
quantity.measured: IC50 (nM)

A: c1cc(N[C@@H]2CCCNC2)nc(-c2cnc3ccc(-c4cnn5ccccc45)nn23)c1 [Compound 19]
B: COc1cc2ncc(-c3cccc(N[C@H]4CNC[C@@H]4F)n3)n2nc1C(C)(O)C(F)(F)F (single isomer, unassigned; fast-eluting) [Compound 133]
Returns the identifier with the smallest measured IC50 among A and B . Mark your answer with the label of the selected entry.
B
(B: 98 nM, A: 511 nM)

====

Target: FLT3 N841I (Homo sapiens, UniProt P36888, N841I)
Experiment: DiscoverX KINOMEscan competition binding assay, FLT3 N841I
Text: Kinase binding data were obtained for various exemplary compounds prepared according to Examples 1-25 using the DiscoverX KINOMEscan® active site-directed competition binding site-directed assay protocol described below. […] Compounds that directly or indirectly prevent kinase binding to the immobilized ligand reduce the amount of kinase captured on the solid support, which is detected using an ultra-sensitive qPCR method. […]
quantity.measured: Kd (nM)

COc1cc2ncc(-c3cccc(N[C@@H]4CCNC4)n3)n2nc1C1CC1 : 0.55

A: COc1cc2ncc(-c3cccc(N[C@H]4CNC[C@@H]4F)n3)n2nc1C1CC1
B: COc1cc2ncc(-c3cccc(N[C@H]4CNCC[C@@H]4F)n3)n2nc1C1CC1
Consider A and B . Which of these has its Kd at a higher number? Mark your answer with the label of the selected entry.
A
(A: 0.91 nM, B: 0.36 nM)

====

Biological target: FLT3 (Homo sapiens)
Construct: purchased Reaction Biology (RBC HotSpot Kinase Assay)
Assay: RBC HotSpot Kinase Assay, FLT3
Format: biochemical
pIC50: −log10 of the molar value.
quantity.measured: pIC50

a: FC(F)n1cc(-c2ccc3ncc(-c4cccc(NC5CNCC5(F)F)n4)n3n2)cn1 (centres unmarked)
b: F[C@H]1CNC[C@@H]1Nc1cccc(-c2cnc3ccc(NC4CCCCC4)nn23)n1
c: CO[C@H]1CNC[C@@H]1Nc1cccc(-c2cnc3ccc(C4CC4)nn23)n1
d: F[C@@H]1CNCC[C@H]1Nc1cccc(-c2cnc3ccc(C4CC4)nn23)n1
e: Cn1cc(-c2ccc3ncc(-c4cccc(NC5CCNC5)n4)n3n2)cn1 (centres unmarked)
Please give the order of these molecules when sorted by pIC50, largest value leading. Answer format: list of labels, ordered as asked.
e, c, d, a, b

P: CN(C)c1ccc2ncc(-c3cccc(N[C@H]4CNC[C@@H]4F)n3)n2n1
Q: COc1cc2ncc(-c3cccc(N[C@@H]4CCCNC4)n3)n2nc1C1(C(F)(F)F)CC1
R: FC(F)n1cc(-c2ccc3ncc(-c4cccc(N[C@H]5CNC[C@@H]5F)n4)n3n2)cn1
Arrange items by their pIC50 values in increasing order. Answer format: list of labels, ordered as asked.
P, R, Q

A: COc1ccc2ncc(-c3cccc(N[C@H]4CNC[C@@H]4F)n3)n2n1
B: CC(C)n1cc(-c2ccc3ncc(-c4cccc(NC5CCNC5)n4)n3n2)cn1 (centres unmarked)
C: CC(C)n1cc(-c2ccc3ncc(-c4cccc(NC5CC6(CNC6)C5)n4)n3n2)cn1
Arrange items by their pIC50 values in increasing order. Answer format: list of labels, ordered as asked.
C, B, A

====

Target: IRAK4 (Homo sapiens, UniProt Q9NWZ3)
Assay: RBC HotSpot Kinase Assay, IRAK4
Type: biochemical
Design: purchased Reaction Biology (RBC HotSpot Kinase Assay)
pIC50: −log10 of the molar value.
quantity.measured: pIC50

Worked examples, 3 molecules total:
CC(C)n1cc(-c2ccc3ncc(-c4cccc(NC5CC6(CCNC6)C5)n4)n3n2)cn1 (centres unmarked) : 6.49
c1cc(NC2CC3(CCNC3)C2)nc(-c2cnc3ccc(-c4cnn(C5CCOCC5)c4)nn23)c1 (centres unmarked) : 5.46
COc1cc2ncc(-c3cccc(N[C@@H]4CCCNC4)n3)n2nc1C(F)F : 8.40

P: F[C@H]1CNC[C@@H]1Nc1cccc(-c2cnc3ccc(-c4cnn5ccccc45)nn23)n1
Q: COc1cc2ncc(-c3cccc(N[C@H]4CNC[C@@H]4C(F)(F)F)n3)n2nc1C1CC1
R: COc1cc2ncc(-c3cccc(N[C@@H]4CCCNC4)n3)n2nc1C(C)(O)C(F)(F)F (single isomer, unassigned) [Compound 132]
Arrange items by their pIC50 values in increasing order. Answer format: list of labels, ordered as asked.
R, P, Q
(R: 5.75, P: 8.15, Q: 9.30)

a: COc1cc2ncc(-c3cccc(N[C@H]4CNC[C@@H]4F)n3)n2nc1C1(C(F)(F)F)CC1
b: COc1cc2ncc(-c3cccc(N[C@H]4CNCC[C@@H]4F)n3)n2nc1C1CC1
c: F[C@H]1CNC[C@@H]1Nc1cccc(-c2cnc3ccc(C4CC4)nn23)n1
d: COc1cc2ncc(-c3cccc(N[C@@H]4CCCNC4)n3)n2nc1C1CC1
Task field, ranking: reported pIC50, descending order. Answer format: list of labels, ordered as asked.
b, d, a, c

P: COc1cc2ncc(-c3nc(N[C@@H]4CCCNC4)c(F)cc3F)n2nc1C1CC1
Q: Fc1cc(F)c2c(-c3ccc4ncc(-c5cccc(NC6CNCC6(F)F)n5)n4n3)cnn2c1 (centres unmarked)
Consider P and Q . Which of these has its pIC50 at a higher number? Mark your answer with the label of the selected entry.
P

1: Cn1cc(-c2ccc3ncc(-c4cccc(NC5CNCC5(F)F)n4)n3n2)cn1 (centres unmarked)
2: FC(F)n1cc(-c2ccc3ncc(-c4cccc(N[C@H]5CCNC[C@@H]5F)n4)n3n2)cn1
Consider 1 and 2 . Which of these has its pIC50 at a higher number? Mark your answer with the label of the selected entry.
1
